# TEST SYSTEM: HIV Env of isolate X1254_C3 (clade G) (HIV)
# PROCEDURE TEXT: cell-based or functional assay
RESULT TYPE: IC50 (µg/ml) with constrains (µg/mL)
The reply should contain only the number, in µg/mL.

Problem: What value of IC50 (µg/ml) with constrains has been reported for the following binder? PGDM1400 (antibody, V domains shown) VH: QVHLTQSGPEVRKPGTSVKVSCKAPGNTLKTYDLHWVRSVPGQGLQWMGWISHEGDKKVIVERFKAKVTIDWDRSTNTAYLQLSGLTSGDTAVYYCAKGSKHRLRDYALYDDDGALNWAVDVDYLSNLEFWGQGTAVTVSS VL: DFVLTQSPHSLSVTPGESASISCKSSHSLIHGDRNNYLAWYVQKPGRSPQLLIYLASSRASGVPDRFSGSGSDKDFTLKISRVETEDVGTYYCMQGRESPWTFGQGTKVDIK
Result: 45.4

Problem: Lookup ePGDM9 (antibody, V domains shown) VH: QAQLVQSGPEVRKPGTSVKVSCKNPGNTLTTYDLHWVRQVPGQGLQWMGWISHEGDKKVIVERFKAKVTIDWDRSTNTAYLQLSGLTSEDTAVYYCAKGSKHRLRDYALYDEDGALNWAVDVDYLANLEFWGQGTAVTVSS VL: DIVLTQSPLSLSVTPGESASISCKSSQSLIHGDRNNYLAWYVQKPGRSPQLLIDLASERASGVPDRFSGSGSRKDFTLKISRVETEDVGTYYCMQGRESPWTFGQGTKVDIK
Result: 0.178

Problem: Lookup ePGDM5 (antibody, V domains shown) VH: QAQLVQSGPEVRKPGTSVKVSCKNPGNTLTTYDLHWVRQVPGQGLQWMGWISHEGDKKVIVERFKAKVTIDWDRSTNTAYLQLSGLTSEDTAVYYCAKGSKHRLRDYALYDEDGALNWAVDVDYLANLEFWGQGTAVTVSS VL: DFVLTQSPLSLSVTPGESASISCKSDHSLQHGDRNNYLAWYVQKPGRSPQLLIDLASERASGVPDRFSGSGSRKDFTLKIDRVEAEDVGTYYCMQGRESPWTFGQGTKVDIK
Result: 0.217

Problem: Lookup ePGDM13 (antibody, V domains shown) VH: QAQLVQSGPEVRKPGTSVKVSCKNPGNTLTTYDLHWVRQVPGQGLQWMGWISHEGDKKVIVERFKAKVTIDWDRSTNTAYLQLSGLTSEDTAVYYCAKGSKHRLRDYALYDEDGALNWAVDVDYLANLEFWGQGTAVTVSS VL: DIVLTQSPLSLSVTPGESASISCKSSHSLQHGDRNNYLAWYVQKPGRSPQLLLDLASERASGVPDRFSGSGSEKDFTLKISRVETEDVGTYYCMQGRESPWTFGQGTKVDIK
Result: 0.518
